These measurements were taken from PubChem BioAssay (Tox21).

# Test description: qHTS assay for small molecules that induce genotoxicity in human embryonic kidney cells expressing luciferase-tagged ATAD5 - cell viability (AID 651634); note: nearly all actives have a fitted effect of over 25% in size
# Measurement parameters: HEK293T ATAD5-luc cells viability, CellTiter-Fluor, 15.5 h; series mostly up to 83.3 µM
Records with an inconclusive call do not appear. The source made the active and inactive calls. Calls come from the whole dose curve.
Pick from active, inactive when you respond.

- O=C1C(=O)c2ccccc2C(O)=C1C1CCC(c2ccc(Cl)cc2)CC1 (configuration not stated): inactive
- C/C=C/C=C/C=O: inactive
- CC1=C(Br)C(=O)C(Br)=C/C1=C(/c1ccccc1S(=O)(=O)O)c1cc(Br)c(O)c(Br)c1C: active
- C=C1CCC2CC1C2(C)C (configuration not stated): inactive
- CC(O)c1ccccc1 (configuration not stated): inactive

So what was the verdict on Cc1ccc(C(C)(C)O)cc1 in this test?
inactive

So what was the verdict on CN1C(=O)N(c2ccccc2Br)Cc2cnc(Nc3ccc4c(c3)OCC(CO)O4)nc21 (configuration not stated) in this test?
active

So what was the verdict on CC(C)C[C@H](NC(=O)[C@H](CCc1ccccc1)NC(=O)CN1CCOCC1)C(=O)N[C@@H](Cc1ccccc1)C(=O)N[C@@H](CC(C)C)C(=O)[C@@]1(C)CO1 in this test?
active

So what was the verdict on CC(=O)Nc1ccc(C)cc1C in this test?
inactive

So what was the verdict on C=C(C)C(=O)OCCCCCCCCCCCCC in this test?
inactive

So what was the verdict on CCC1(CO)COCOC1 in this test?
inactive

So what was the verdict on O=C1NC(=O)c2cc([N+](=O)[O-])ccc21 in this test?
inactive
